Assay: Half life of the compound in po dosed Wistar Han rat
Assay type: ADME, organism-based
Details: in vivo
assay readout: half-life (h)
Report the figure in h without appending any unit label.

INPUT: # half-life lookup, item `CCOc1cccnc1Oc1cncc(-c2ncc(C(=O)N[C@H]3CCOC3)cn2)c1`
OUTPUT: 1.4

----------
Assay: physchem
Description: Dissociation constant, pKa of the compound
Lab note: compare pKa against 7. Equal or greater, write YES. Smaller, write NO.

Illustrative cases are given below, each with its answer.
INPUT: # check: pKa of CCOc1cccnc1Oc1cncc(-c2ncc(C(=O)N[C@H]3CC[C@@H](C(F)(F)F)NC3)cn2)c1 (relative stereo) is greater than or equal to 7
OUTPUT: NO

INPUT: Here is the next compound: `CCOc1cccnc1Oc1cncc(-c2ncc(C(=O)N[C@@H]3CNCCC3(F)F)cn2)c1`
OUTPUT: NO

New cases:
INPUT: Check the entry `CCOc1cccnc1Oc1cncc(-c2ncc(C(=O)N[C@@H]3CNCC[C@@H]3F)cn2)c1` : does pKa equal or exceed 7?
OUTPUT: YES

INPUT: And the next one, `CCOc1cccnc1Oc1cncc(-c2ncc(C(=O)NC3CCNCC3)cn2)c1` ?
OUTPUT: YES

INPUT: Quick one: `CCOc1cccnc1Oc1cncc(-c2ncc(C(=O)N[C@H]3CCNC3)cn2)c1`
OUTPUT: YES

INPUT: // same read-out, input: `CCOc1cccnc1Oc1cncc(-c2ncc(C(=O)N[C@@H]3CCNC3)cn2)c1`
OUTPUT: YES

----------
Assay: Half life of the compound in po dosed cynomolgus monkey
Assay type: ADME, organism-based, Macaca fascicularis
Details: in vivo
assay readout: half-life (h)
Give your result in h as a bare value.

INPUT: What does the record list as half-life for `CCOc1cccnc1Oc1cncc(-c2ncc(C(=O)N[C@@H]3CNC[C@@H](F)C3)cn2)c1` ?
OUTPUT: 6.5

Consider the additional compound presented here.
INPUT: Need half-life of CCOc1cccnc1Oc1cncc(-c2ncc(C(=O)N[C@H]3CCOC3)cn2)c1 [PF-06865571] , thanks.
OUTPUT: 3.9

----------
Assay: Half life of the compound in Wistar Han rat at 1 mg/kg, iv
Assay type: ADME, organism-based
Details: in vivo
assay readout: half-life
Quote the value and follow it with the unit of measurement.

INPUT: # lookup: half-life of `CCOc1cccnc1Oc1cncc(-c2ncc(C(=O)N[C@@H]3CNC[C@@H](F)C3)cn2)c1`
OUTPUT: 0.9 h

More entries:
INPUT: Please give the measured half-life for this molecule: `CCOc1cccnc1Oc1cncc(-c2ncc(C(=O)N[C@@H]3CCNC3)cn2)c1`
OUTPUT: 1.9 h

----------
Assay: Renal clearance in Beagle dog plasma at 1 mg/kg,iv
Type: ADME, organism-based, Canis lupus familiaris
assay readout: CL renal (mL/min/kg)
Please reply with the bare figure in mL/min/kg and do not write the unit itself.

INPUT: Requested field: CL renal. Item: `CCOc1cccnc1Oc1cncc(-c2ncc(C(=O)N[C@@H]3CNC[C@@H](F)C3)cn2)c1`
OUTPUT: 5.5

----------
List of CLH(app) values.
Settings: human, hepatocytes
Description: Apparent intrinsic clearance in human hepatocytes measured per million cells by LC-MS/MS analysis
Lab book: enter the figure in µL/min, no units written.

INPUT: Given the compound CCOc1cccnc1Oc1cncc(-c2ncc(C(=O)N[C@@H]3CNC[C@H](F)C3)cn2)c1 (racemic) , what is its reported CLH(app)?
OUTPUT: 6.6

INPUT: Now the compound `CCOc1cccnc1Oc1cncc(-c2ncc(C(=O)N[C@@H]3CNCCC3(F)F)cn2)c1`
OUTPUT: 4.7

INPUT: Try the compound CCOc1cccnc1Oc1cncc(-c2ncc(C(=O)N[C@H]3CC[C@@H](C(F)(F)F)NC3)cn2)c1 (relative stereo)
OUTPUT: 38

INPUT: Likewise for `CCOc1cccnc1Oc1cncc(-c2ncc(C(=O)N[C@@H]3CNCC(F)(F)C3)cn2)c1` ?
OUTPUT: 9.3
